Exercise: state measured drug sensitivity score for each of the compounds provided.
# Test system: DLD1 NRF2-WT
# assay_method_text: drug sensitivity score (DSS) cytotoxicity (DSS score); higher = more toxic; extreme values may be limits of the assay
# applied_conditions: 72 h; CellTox Green cytotoxicity
API doc: respond with a numeric literal and nothing else, no unit.

[Q] Bench note: what drug sensitivity score did COc1ccccc1S(=O)(=O)Nc1ccc2c(c1)CN(C)C(=O)N2 [PFI-1] show?
[A] 0

[Q] Fill in: drug sensitivity score of CCn1c(-c2nonc2N)nc2c(C#CC(C)(C)O)ncc(OC[C@H]3CCCNC3)c21 is ___
[A] 0

[Q] What does the record list as drug sensitivity score for NC(=S)N/N=C/c1ncccc1N [Triapine] ?
[A] 0

[Q] Consider the compound COc1cc(OC2CCN(C)CC2)ccc1Nc1ncc2c(n1)n(C1CCCC1)c(=O)n2C [AZ 3146] and give its measured drug sensitivity score.
[A] 2.5

[Q] Fill blank: measured drug sensitivity score of the compound CC#CC(=O)N1CCC[C@H]1c1nc(-c2ccc(C(=O)Nc3ccccn3)cc2)c2c(N)nccn12 [Acalabrutinib] is ____.
[A] 0

[Q] # drug sensitivity score lookup, item CN1CCC(CNc2ccc3ncc(-c4cccc(OC(F)(F)F)c4)n3n2)CC1 [SGI-1776]
[A] 4.5

[Q] For the compound shown here, O=C(CCCCCCC(=O)Nc1ccc([C@H]2O[C@@H](CSc3nc(-c4ccccc4)c(-c4ccccc4)o3)C[C@@H](c3ccc(CO)cc3)O2)cc1)NO [Tubacin] , give the reported drug sensitivity score.
[A] 0

[Q] Which drug sensitivity score is reported for this compound? COc1cc2nccc(Oc3ccc(NC(=O)NC4CC4)c(Cl)c3)c2cc1C(N)=O [Lenvatinib]
[A] 0

* * *

# Test system: DLD1 NRF2-WT
# assay_method_text: drug sensitivity score (DSS) cytotoxicity (DSS score); higher = more toxic; extreme values may be limits of the assay
# applied_conditions: 72 h; CellTox Green cytotoxicity
For each of the molecules below, state its drug sensitivity score.

[Q] Value lookup for drug sensitivity score; key = CC[C@H](NC(=O)[C@H](C)NC)C(=O)N1C[C@@H](O)C[C@H]1Cc1c(-c2[nH]c3cc(F)ccc3c2C[C@@H]2C[C@H](O)CN2C(=O)[C@H](CC)NC(=O)[C@H](C)NC)[nH]c2cc(F)ccc12 [Birinapant]
[A] 0

[Q] Reported drug sensitivity score for CCN1CCN(Cc2ccc(Nc3ncc(F)c(-c4cc(F)c5nc(C)n(C(C)C)c5c4)n3)nc2)CC1 [Abemaciclib] : what is it?
[A] 0

[Q] If you can, please state the reported drug sensitivity score value of Cc1ccc(Nc2nccc(N(C)c3ccc4c(C)n(C)nc4c3)n2)cc1S(N)(=O)=O [Pazopanib] .
[A] 0

[Q] Endpoint output: drug sensitivity score of COc1cc(Nc2ncc3c(n2)-c2ccc(Cl)cc2C(c2c(F)cccc2OC)=NC3)ccc1C(=O)O [Alisertib] . Value?
[A] 2.8

[Q] What value of measured drug sensitivity score is listed for CCOC(=O)CCNc1cc(N2CCc3ccccc3CC2)nc(-c2ccccn2)n1 [GSK-J4] ?
[A] 0

[Q] Entry under review: O=C(CCCCCCC(=O)Nc1ccccc1)NO [Vorinostat] . Reported drug sensitivity score?
[A] 2.2

[Q] # query: drug sensitivity score of entry O=C(/C=C/c1cccnc1)NCCCCC1CCN(C(=O)c2ccccc2)CC1 [Daporinad]
[A] 0

[Q] Find the recorded drug sensitivity score belonging to C=CC(=O)N1CCC[C@@H](n2nc(-c3ccc(Oc4ccccc4)cc3)c3c(N)ncnc32)C1 [Ibrutinib] and report it.
[A] 0

[Q] Query (molecule): CNc1ncc2cc(-c3cc(NC(=O)NCCC(C)(C)C)c(F)cc3C)c(C)nc2n1 ; field requested: drug sensitivity score
[A] 0

[Q] Name the recorded drug sensitivity score for CN1CCC(COc2cnc(-c3cccc(Cn4nc(-c5cccc(C#N)c5)ccc4=O)c3)nc2)CC1 [Tepotinib] .
[A] 0

[Q] What does the data say about its drug sensitivity score? Entry: CNC(=O)c1nn(C)c2c1C(C)(C)Cc1cnc(Nc3ccc(N4CCN(C)CC4)cc3)nc1-2 [Milciclib]
[A] 0.5

[Q] Requested field: drug sensitivity score. Item: Cc1[nH]c2ccccc2c1CCNCc1ccc(/C=C/C(=O)NO)cc1 [Panobinostat]
[A] 6.6

[Q] Need drug sensitivity score of C[C@]1(c2nc3c(C(N)=O)cccc3[nH]2)CCCN1 [Veliparib] , thanks.
[A] 0

[Q] I am curious: what drug sensitivity score value has been reported for O=C(O)CCCCC(CCSCc1ccccc1)SCc1ccccc1 (configuration not stated) [CPI-613] ?
[A] 0

[Q] // lookup drug sensitivity score for CCOCc1nc2c(N)nc3ccccc3c2n1CC(C)(C)O [Resiquimod]
[A] 0

[Q] Any idea what drug sensitivity score was measured for Cn1nnc2c(C(N)=O)ncn2c1=O [Temozolomide] ?
[A] 0

[Q] Which drug sensitivity score is reported for this molecule? CC[C@@H]1[C@H](F)C(=O)N[C@@H]1COc1nccc2cc(C(N)=O)c(OC)cc12
[A] 0
